# assaySummary: Inhibition of cell growth of human MCF-10A cells at 25 uM measured after 72 hrs by MTT assay relative to control
# Type: toxicity, cell-based
attributeMeasured: inhibition at 72 h, 25 µM (%)

| mol | numericValue |
| --- | --- |
| O=S(=O)(c1cccc(C(F)(F)F)c1)N1CCN(CCCn2cc(-c3ccc(Br)cc3)nn2)CC1 | 74 |
| O=S(=O)(c1cccc(C(F)(F)F)c1)N1CCN(CCCn2cc(-c3ccc(C(F)(F)F)cc3)nn2)CC1 | 59 |
| O=S(=O)(c1ccccc1C(F)(F)F)N1CCN(CCCn2cc(-c3ccc(Br)cc3)nn2)CC1 | 72 |
| Cc1ccc(-c2cn(CCCN3CCN(S(=O)(=O)c4cccc(C(F)(F)F)c4)CC3)nn2)cc1 | 79 |
| Cc1ccc(-c2cn(CCCN3CCN(S(=O)(=O)c4ccccc4C(F)(F)F)CC3)nn2)cc1 | 61 |
| CCc1ccc(-c2cn(CCCN3CCN(S(=O)(=O)c4cccc(C(F)(F)F)c4)CC3)nn2)cc1 | 77 |
| CCc1ccc(-c2cn(CCCN3CCN(S(=O)(=O)c4ccccc4C(F)(F)F)CC3)nn2)cc1 | 63 |
| O=S(=O)(c1ccccc1C(F)(F)F)N1CCN(CCCn2cc(-c3ccc(C(F)(F)F)cc3)nn2)CC1 | 64 |

----------
# assaySummary: Inhibition of cell growth of human MCF-10A cells at 25 uM measured after 72 hrs by MTT assay relative to control
inhibition at 72 h, 25 µM vs 60%: at or above is Condition met, below is Condition not met.

| mol | qualitativeLabel |
| --- | --- |
| CC(=O)Nc1ccc(S(=O)(=O)N2CCN(CCCn3cc(-c4cccc(Cl)c4)nn3)CC2)cc1 | Condition not met |
| CC(=O)Nc1ccc(S(=O)(=O)N2CCN(CCCn3cc(-c4ccccc4)nn3)CC2)cc1 | Condition not met |
| CC(=O)Nc1ccc(S(=O)(=O)N2CCN(CCCn3cc(-c4ccc(C(F)(F)F)cc4)nn3)CC2)cc1 | Condition met |
| CC(=O)Nc1ccc(S(=O)(=O)N2CCN(CCCn3cc(-c4ccc([N+](=O)[O-])cc4)nn3)CC2)cc1 | Condition met |
| CC(=O)Nc1ccc(S(=O)(=O)N2CCN(CCCn3cc(-c4ccc(C)cc4)nn3)CC2)cc1 | Condition met |
| CCc1ccc(-c2cn(CCCN3CCN(S(=O)(=O)c4ccc(NC(C)=O)cc4)CC3)nn2)cc1 | Condition met |
| CC(=O)Nc1ccc(S(=O)(=O)N2CCN(CCCn3cc(-c4ccc(F)cc4)nn3)CC2)cc1 | Condition not met |
| CC(=O)Nc1ccc(S(=O)(=O)N2CCN(CCCn3cc(-c4ccc(Br)cc4)nn3)CC2)cc1 | Condition not met |

----------
Property: GI50 at 72 h; scope: individual compounds
# assaySummary: Inhibition of cell growth of human MCF-10A cells measured after 72 hrs by MTT assay
# Type: toxicity, cell-based

| mol | qualifierSign | GI50 at 72 h / µM |
| --- | --- | --- |
| COc1cccc(-c2cn(CCCN3CCN(S(=O)(=O)c4ccc([N+](=O)[O-])cc4)CC3)nn2)c1 | > | 50 |
| COc1cccc(-c2cn(CCCN3CCN(S(=O)(=O)c4ccccc4)CC3)nn2)c1 | > | 50 |
| O=S(=O)(c1ccccc1C(F)(F)F)N1CCN(CCCn2cc(-c3ccc(Br)cc3)nn2)CC1 | = | 12 |
| COc1ccccc1-c1cn(CCCN2CCN(S(=O)(=O)c3ccc(C(F)(F)F)cc3)CC2)nn1 | = | 1 |
| COc1cccc(-c2cn(CCCN3CCN(S(=O)(=O)c4ccc(Br)cc4)CC3)nn2)c1 | = | 29 |

----------
# Test system: HPAC
# assaySummary: Inhibition of cell growth of human HPAC cells measured after 72 hrs by CCK8 assay
# Type: functional
attributeMeasured: GI50 (µM)

| mol | numericValue |
| --- | --- |
| O=S(=O)(c1ccc(C(F)(F)F)cc1)N1CCN(CCCn2cc(-c3ccc(Br)cc3)nn2)CC1 | 9.6 |
| CCc1ccc(-c2cn(CCCN3CCN(S(=O)(=O)c4ccc(C(F)(F)F)cc4)CC3)nn2)cc1 | 5.8 |
| O=S(=O)(c1ccc(C(F)(F)F)cc1)N1CCN(CCCn2cc(-c3ccc(C(F)(F)F)cc3)nn2)CC1 | 15 |
| Cc1ccc(-c2cn(CCCN3CCN(S(=O)(=O)c4ccc(C(F)(F)F)cc4)CC3)nn2)cc1 | 5 |

----------
The following molecules are shown together with reported inhibition at 25 µM values.
# System: Capan-2
# assaySummary: Inhibition of cell growth of human Capan-2 cells at 25 uM measured after 72 hrs by MTT assay relative to control
# Type: functional
attributeMeasured: inhibition at 25 µM (%)

| mol | attributeMeasured | quantityUnit | numericValue |
| --- | --- | --- | --- |
| Cc1ccc(-c2cn(CCCN3CCN(S(=O)(=O)c4cccc(C(F)(F)F)c4)CC3)nn2)cc1 | inhibition at 25 µM | % | 54 |
| O=S(=O)(c1cccc(C(F)(F)F)c1)N1CCN(CCCn2cc(-c3ccc(Br)cc3)nn2)CC1 | inhibition at 25 µM | % | 39 |
| CCc1ccc(-c2cn(CCCN3CCN(S(=O)(=O)c4cccc(C(F)(F)F)c4)CC3)nn2)cc1 | inhibition at 25 µM | % | 58 |
| O=S(=O)(c1ccccc1C(F)(F)F)N1CCN(CCCn2cc(-c3ccc(Br)cc3)nn2)CC1 | inhibition at 25 µM | % | 65 |

----------
# Tested on: PANC-1
# assaySummary: Inhibition of cell growth of human PANC-1 cells at 25 uM measured after 72 hrs by MTT assay relative to control
# Type: functional

| mol | inhibition at 25 µM |
| --- | --- |
| Cc1ccc(-c2cn(CCCN3CCN(S(=O)(=O)c4ccccc4C(F)(F)F)CC3)nn2)cc1 | 48% |
| CCc1ccc(-c2cn(CCCN3CCN(S(=O)(=O)c4ccccc4C(F)(F)F)CC3)nn2)cc1 | 48% |
| O=S(=O)(c1ccccc1C(F)(F)F)N1CCN(CCCn2cc(-c3ccc(C(F)(F)F)cc3)nn2)CC1 | 54% |
| CCc1ccc(-c2cn(CCCN3CCN(S(=O)(=O)c4cccc(C(F)(F)F)c4)CC3)nn2)cc1 | 59% |

----------
Below is a list of entries, each paired with its recorded inhibition at 25 µM value.
# System: HT-29
# assaySummary: Inhibition of cell growth of human HT-29 cells at 25 uM measured after 72 hrs by MTT assay relative to control
# Assay type: functional

| mol | inhibition at 25 µM, % |
| --- | --- |
| CCc1ccc(-c2cn(CCCN3CCN(S(=O)(=O)c4ccccc4C(F)(F)F)CC3)nn2)cc1 | 79 |
| O=S(=O)(c1cccc(C(F)(F)F)c1)N1CCN(CCCn2cc(-c3ccc(C(F)(F)F)cc3)nn2)CC1 | 50 |
| Cc1ccc(-c2cn(CCCN3CCN(S(=O)(=O)c4ccccc4C(F)(F)F)CC3)nn2)cc1 | 86 |
| O=S(=O)(c1ccccc1C(F)(F)F)N1CCN(CCCn2cc(-c3ccc(C(F)(F)F)cc3)nn2)CC1 | 69 |
| O=S(=O)(c1ccccc1C(F)(F)F)N1CCN(CCCn2cc(-c3ccc(Br)cc3)nn2)CC1 | 92 |
| CCc1ccc(-c2cn(CCCN3CCN(S(=O)(=O)c4cccc(C(F)(F)F)c4)CC3)nn2)cc1 | 65 |
| O=S(=O)(c1cccc(C(F)(F)F)c1)N1CCN(CCCn2cc(-c3ccc(Br)cc3)nn2)CC1 | 46 |
| Cc1ccc(-c2cn(CCCN3CCN(S(=O)(=O)c4cccc(C(F)(F)F)c4)CC3)nn2)cc1 | 63 |

----------
# Tested on: BE(2)-C
# assaySummary: Inhibition of cell growth of human BE2C cells at 25 uM measured after 72 hrs by MTT assay relative to control
# binarize inhibition at 25 µM: threshold 40% inclusive, high side y, low side n

| mol | qualitativeLabel |
| --- | --- |
| CC(=O)Nc1ccc(S(=O)(=O)N2CCN(CCCn3cc(-c4ccccc4)nn3)CC2)cc1 | n |
| CC(=O)Nc1ccc(S(=O)(=O)N2CCN(CCCn3cc(-c4ccc([N+](=O)[O-])cc4)nn3)CC2)cc1 | y |
| CCc1ccc(-c2cn(CCCN3CCN(S(=O)(=O)c4ccc(NC(C)=O)cc4)CC3)nn2)cc1 | n |
